- measurement_target: T1, preformed PscE–PscG heterodimer (Pseudomonas aeruginosa, UniProt Q9I317 1-67; P95435 1-115)
- T1 sequence (looked up) 1: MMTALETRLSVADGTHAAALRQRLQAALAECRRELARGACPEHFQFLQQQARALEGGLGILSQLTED
- T1 sequence (looked up) 2: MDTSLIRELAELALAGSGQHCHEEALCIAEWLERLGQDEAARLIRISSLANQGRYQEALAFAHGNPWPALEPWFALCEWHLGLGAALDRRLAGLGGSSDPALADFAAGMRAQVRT
- method_notes: fluorescence polarisation
Where no end group is shown, it is not given here.
readout_type: Kd (nM)
// note: answer is a bare numeric in nM

Asked: Please give the measured Kd for this binder: TVTRALRDLMQGILQKI (peptide, UniProt P95434 69-85, looked up, also: fluorescein (FAM) label) [^FAMPscF^69–85]
Given back: 52
